I'd appreciate it if you could supply neutralisation IC50, Wuhan-Hu-1 pseudovirus values for the items below.
- target-desc: SARS-CoV-2 Wuhan-Hu-1 RBD (SARS-CoV-2, Wuhan-Hu-1 (GenBank …, UniProt P0DTC2))
- procedure-details: cell-based or functional assay

Completed entries (count: 2):
JR039 (antibody, V domains shown) VH: QLQLQESGPGLVKPSETLSLTCTVSGGSISSSSYYWGWIRQPPGKGLEWIGSIYYSGSTYYNPSLKSRVSISVDTSKNQFSLKLSSVTAADTAVYYCARPGPAYYDRSGYYRAEYFQRWGQGTLVTVSS VL: AIRMTQSPSSLSASVGDRVTITCQASQDISDYLSWYQQKPGKAPKLLIYDASNLETGVPSRFSGSGSGTDFTFTISSLQPEDIATYYCQQYDNLPLTFGGGTKVEIK | 0.0219 µg/mL
JR310 (antibody, V domains shown) VH: EVQLVESGGGLIQPGGSLRLSCAASGFTVSSNYMSWVRQAPGKGLEWVSVIYSGGSTYYADSVKGRFTISRDNSKNTLYLQMNSLRAEDTAVYYCARGDPSDYYYYGMDVWGQGTTVTVSS VL: QSVLTQPPSVSGAPGQRVTISCTGSSSNIGAGYDVHWYQQLPGTAPKLLIYGNSNRPSGVPDRFSGSKSGTSASLAITGLQAEDEADYYCQSYDSSLSGSGVFGTGTKVTVL | 0.219 µg/mL

Below: the item to evaluate.
**Query** Which neutralisation IC50, Wuhan-Hu-1 pseudovirus reading was recorded for the binder JR095 (antibody, V domains shown) VH: VQLVESGGGVVQPGRSLRLSCAASGFTFSRYAMHWVRQAPGKGLQWVAIISYDGSNKYYADSVKGRFTISRDNSKNTLYLQMNSLRAEDTAVYYCARHITGTDYWGQGTLVTVSS VL: DIQMTQSPSSLSASVGDRVTITCRASQGISIYLAWFQQKPGKAPKSLIYAASNLQSGVPSKFSGSGSGTDFTLTISSLQPEDFATYYCQQYDSYPITFGQGTRLEIK ?
**Result** > 1 µg/mL
